// values below are reported viability
test: viability of HCT116 without oncogenic beta-catenin – human colon tumor cells, pilot screen (AID 823); details: HCT116 beta-catenin knockout viability, CellTiter-Glo, 60 h; at 10 µM; stronger effect = lower value;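 further: 0% = wells killed by 20 µM Hyamine and 100% = untreated DMSO cell wells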
Records with an inconclusive call do not appear.
Write the answer as a number in %, unit excluded.

query: Given Cc1cc(OC(=O)c2ccco2)c2c3c(c(=O)oc2c1)CCC3 , state its recorded viability.
result: 94.3

query: Requested read-out: viability. Entry: CC12CN3CC(C)(CN(C1)C3c1ccco1)C2=O (stereo unspecified)
result: 95.6

query: Entry COc1ccc(CN2CC3CC(C2)c2cccc(=O)n2C3)cc1OC (stereo unspecified) : reported viability = ?
result: 93.2

----------
molecular target: Pantothenate synthetase (Mycobacterium tuberculosis (strain ATCC 25618 / H37Rv)); experiment: Coupled enzyme confirmation of inhibitors against recombinant Mtb PanC (AID 375); details: coupled enzyme assay; at 10 µM, stronger effect = higher value;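 further: 0% = full reaction with vehicle and 100% = no enzyme background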
recorded.metric: inhibition (%)
Just the number in %, nothing appended.

For orientation, consider the following solved cases.
COc1ccc(-c2nnc3sc(C(C)N4C(=O)c5ccccc5C4=O)nn23)cc1 (stereo not drawn)
0
O=C(O)CCn1c(SCc2ccccc2)nc2ccccc21
0
COc1ccc(S(=O)(=O)N2CCCC(C(=O)N3CCCCCC3)C2)cc1 (stereo not drawn)
6

Please find the next molecule below.
query: Suppose we examine the molecule O=C(c1ccco1)N1CCN(C(=O)c2sccc2-c2ccccc2)CC1 ; what inhibition value has been reported?
result: 0

----------
Parameter: viability. Scope: all listed entries.
assay: MRP1 drug-resistance reversers in H69AR cells – cell-based, doxorubicin co-treatment, pilot screen (AID 601); conditions: H69AR cells, CellTiter-Glo, 72 h; compound alone cytotoxicity; at 10 µM
Answer in %, number only, no unit symbol.

Sample answers from the record:
Clc1ccc(COC(Cn2ccnc2)c2ccc(Cl)cc2Cl)cc1 (stereo not drawn)
38.5
COc1ccc(CCn2c(O)c(C=NCc3cccnc3)c(=O)[nH]c2=O)cc1OC
95.4

Let's switch to this compound now.
query: What value of viability has been reported for the following compound? CC(C)OCCCNC(=O)c1c(N)n(CC2CCCO2)c2nc3ccccc3nc12 (stereo not drawn)
result: 59.6

----------
molecular target: Pantothenate synthetase (Mycobacterium tuberculosis (strain ATCC 25618 / H37Rv)) (UniProt P9WIL5); experiment: Coupled enzyme confirmation of inhibitors against recombinant Mtb PanC (AID 375); settings: coupled enzyme assay; at 10 µM, stronger effect = higher value;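 further: 0% = full reaction with vehicle and 100% = no enzyme background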
Sequence (P9WIL5 whole entry, looked up): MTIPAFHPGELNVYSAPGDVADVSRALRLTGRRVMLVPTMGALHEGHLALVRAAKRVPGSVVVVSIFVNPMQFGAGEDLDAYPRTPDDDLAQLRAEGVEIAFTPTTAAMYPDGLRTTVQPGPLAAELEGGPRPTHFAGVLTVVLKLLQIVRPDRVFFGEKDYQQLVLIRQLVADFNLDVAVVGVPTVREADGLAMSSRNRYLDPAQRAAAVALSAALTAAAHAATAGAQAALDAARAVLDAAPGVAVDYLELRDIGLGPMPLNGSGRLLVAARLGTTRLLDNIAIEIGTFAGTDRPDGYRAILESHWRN
Would you please tag the item fulfilled when its inhibition is 4% or above, and not fulfilled when it is below?

# example entries with known answers
Fc1ccc(-n2c(Cc3ccccc3)nnc2SCc2nc(-c3cccs3)no2)cc1
not fulfilled
C=C(Cl)COC(=O)[C@H]1C2C=CC(C2)C1C(=O)O (some centres not stated)
not fulfilled
CN(C)S(=O)(=O)c1ccc(C(=O)Nc2ccccc2C(=O)O)cc1
fulfilled

query: Test whether the molecule COc1cc2c(cc1OC)C(C)N(C(=O)Cn1ncc3c1-c1ccccc1OC3)CC2 (configuration not stated) records inhibition of 4% or higher.
result: not fulfilled

query: Determine whether measured inhibition meets or exceeds 4% for COc1ccc(OC)c(NC(=O)CCNS(=O)(=O)c2cccs2)c1
result: not fulfilled

----------
target: Pantothenate synthetase (Mycobacterium tuberculosis (strain ATCC 25618 / H37Rv)); assay: Coupled enzyme confirmation of inhibitors against recombinant Mtb PanC (AID 375); settings: coupled enzyme assay; at 10 µM, stronger effect = higher value;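 further: 0% = full reaction with vehicle and 100% = no enzyme background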
Label condition met when inhibition is at or above 1%; anything below gets condition not met.

Check out these entries, answers already filled in.
CCOC(=O)N1CCN(C(=O)Nc2ccc3oc(C)nc3c2)CC1
condition met
COCCNC(=O)C(C)OC(=O)c1nsc(Cl)c1Cl (stereo unspecified)
condition not met

query: Record O=C(CCS(=O)(=O)c1cc(Br)cc2c1N(C(=O)C1CC1)CC2)NCC1CCCO1 (stereo unspecified) ; criterion: inhibition no lower than 1%. Met?
result: condition not met

query: Textbook exercise: given the entry Cc1onc(-c2ccccc2Cl)c1C(=O)Nc1cccnc1 , state whether its inhibition is greater than or equal to 1%.
result: condition met

query: Reported inhibition reaches at least 1% for Cc1ccc2oc(-c3ccccc3C(=O)O)cc(=O)c2c1 ?
result: condition met

query: Entry Cc1ccc(S(=O)(=O)N2CCCC2C(=O)OCc2ccco2)cc1 (stereo unspecified) : is its inhibition no less than 1%?
result: condition met
